target: AhR (Homo sapiens, UniProt P35869); construct: The HepG2 CYP1A1-Luc cells do express basal luciferase activity that can be increased via potent AhR agonists or decreased via potent AhR antagonists; endogenous in cells; test: AhR direct luciferase reporter assay in HepG2 cells (HepG2 CYP1A1-LUC); conditions: luciferase activity after 18 hours, medium with no exogenous AhR agonist or 10 nM VAF347, read-out: AhR potency (AhR antagonistic potency, IC50 class)
pIC50: −log10 of the molar value.
OBSERVABLE: pIC50

INSERT INTO assay_data (compound, reported) VALUES
  ('Cn1ncnc1C(=O)Nc1ccc2cc(-c3cccc4c3CCC4)[nH]c2n1 [Example 1/16]', '> 7.00'),
  ('Cn1ncnc1C(=O)Nc1ccc2cc(-c3cc(Cl)ccc3C(F)(F)F)[nH]c2n1 [Example 1/26]', '> 7.00'),
  ('Cn1ncnc1C(=O)Nc1ccc2cc(-c3ccccc3C(F)(F)F)n(C)c2n1 [Example 3]', '6.00 to 7.00');

* * *

Quick reference: IC50 of the listed items.
target: AhR (Homo sapiens, UniProt P35869); construct: The HepG2 CYP1A1-Luc cells do express basal luciferase activity that can be increased via potent AhR agonists or decreased via potent AhR antagonists; endogenous in cells; assay: AhR direct luciferase reporter assay in HepG2 cells (HepG2 CYP1A1-LUC); details: luciferase activity after 18 hours, medium with no exogenous AhR agonist or 10 nM VAF347, read-out: AhR potency (AhR antagonistic potency, IC50 class)
OBSERVABLE: IC50

INSERT INTO results (substance_smiles, reported) VALUES
  ('Cn1ccnc1C(=O)Nc1ccc2cc(-c3ccccc3C(F)F)[nH]c2n1', '< 100 nM'),
  ('Cn1ncnc1C(=O)Nc1ccc2cc(-c3ccccc3S(C)(=O)=O)[nH]c2n1', '> 1000 nM'),
  ('Cn1ncnc1C(=O)Nc1ccc2cc(-c3ccccc3C3CC3)[nH]c2n1', '< 100 nM'),
  ('Cc1ccccc1-c1cc2ccc(NC(=O)c3ccnn3C)nc2[nH]1', '< 100 nM'),
  ('O=C(Nc1ccc2cc(-c3ccccc3C(F)(F)F)[nH]c2n1)c1cccnc1', '100 to 1000 nM'),
  ('Cn1ncnc1C(=O)Nc1ccc2cc(-c3cc(C(F)(F)F)ccc3C(F)(F)F)[nH]c2n1', '< 100 nM'),
  ('O=C(Nc1ccc2cc(-c3ccccc3C(F)(F)F)[nH]c2n1)c1ncc2ccccn12', '< 100 nM'),
  ('Cn1ncnc1C(=O)Nc1ccc2cc(-c3cc(Cl)ccc3C(F)F)[nH]c2n1', '< 100 nM'),
  ('Cn1nccc1C(=O)Nc1ccc2cc(-c3cccc(OC(F)(F)F)c3)[nH]c2n1', '> 1000 nM'),
  ('CCc1ccccc1-c1cc2ccc(NC(=O)c3ncnn3C)nc2[nH]1', '< 100 nM'),
  ('Cn1cncc1C(=O)Nc1ccc2cc(-c3ccccc3C(F)F)[nH]c2n1', '100 to 1000 nM'),
  ('Cn1ncnc1C(=O)Nc1ccc2cc(-c3cccc4ccccc34)[nH]c2n1', '< 100 nM');

* * *

Target: AhR (Homo sapiens)
Construct: The HepG2 CYP1A1-Luc cells do express basal luciferase activity that can be increased via potent AhR agonists or decreased via potent AhR antagonists; endogenous in cells
Sequence (P35869 11-848): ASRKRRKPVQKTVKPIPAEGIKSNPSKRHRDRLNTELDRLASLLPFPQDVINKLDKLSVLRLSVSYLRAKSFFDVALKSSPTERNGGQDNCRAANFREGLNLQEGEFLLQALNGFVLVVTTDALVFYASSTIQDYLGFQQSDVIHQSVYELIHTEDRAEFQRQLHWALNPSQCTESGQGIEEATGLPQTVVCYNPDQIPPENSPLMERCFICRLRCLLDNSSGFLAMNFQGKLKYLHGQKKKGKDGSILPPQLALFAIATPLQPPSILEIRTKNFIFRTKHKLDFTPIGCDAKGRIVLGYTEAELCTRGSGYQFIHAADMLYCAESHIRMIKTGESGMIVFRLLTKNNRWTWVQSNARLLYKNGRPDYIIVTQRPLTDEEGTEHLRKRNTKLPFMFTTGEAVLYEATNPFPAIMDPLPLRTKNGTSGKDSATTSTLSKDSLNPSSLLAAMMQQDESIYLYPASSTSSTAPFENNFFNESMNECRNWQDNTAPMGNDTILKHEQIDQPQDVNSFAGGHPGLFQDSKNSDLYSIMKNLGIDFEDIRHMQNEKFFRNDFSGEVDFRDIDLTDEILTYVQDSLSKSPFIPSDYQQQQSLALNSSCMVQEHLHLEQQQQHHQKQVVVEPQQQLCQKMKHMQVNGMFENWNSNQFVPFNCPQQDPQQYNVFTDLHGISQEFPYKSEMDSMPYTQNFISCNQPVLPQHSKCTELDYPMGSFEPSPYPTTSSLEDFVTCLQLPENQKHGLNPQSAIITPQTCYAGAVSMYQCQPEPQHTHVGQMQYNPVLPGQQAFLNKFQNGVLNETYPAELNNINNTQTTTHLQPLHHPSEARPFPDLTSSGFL
Test: AhR direct luciferase reporter assay in HepG2 cells (HepG2 CYP1A1-LUC)
Details: luciferase activity after 18 hours, medium with no exogenous AhR agonist or 10 nM VAF347, read-out: AhR potency (AhR antagonistic potency, IC50 class)
Quick reference: IC50 of the listed items.
OBSERVABLE: IC50

INSERT INTO results (substance_smiles, target_entity, reported) VALUES
  ('Cn1ncnc1C(=O)Nc1ccc2cc(-c3cc(F)ccc3C(F)(F)F)[nH]c2n1', 'AhR (Homo sapiens)', '< 100 nM'),
  ('Cn1ncnc1C(=O)Nc1ccc2cc(-c3cc(C#N)ccc3C(F)(F)F)[nH]c2n1', 'AhR (Homo sapiens)', '< 100 nM'),
  ('Cn1nccc1C(=O)Nc1ccc2cc(-c3cccc(C(F)(F)F)c3)[nH]c2n1', 'AhR (Homo sapiens)', '100 to 1000 nM'),
  ('Cn1ncnc1C(=O)Nc1ccc2cc(-c3ccoc3C(F)F)[nH]c2n1', 'AhR (Homo sapiens)', '< 100 nM'),
  ('Cn1ncnc1C(=O)Nc1ccc2cc(-c3ccccc3C(F)(F)F)[nH]c2n1', 'AhR (Homo sapiens)', '< 100 nM'),
  ('Cn1ncnc1C(=O)Nc1ccc2cc(-c3cc(F)c(F)cc3C(F)F)[nH]c2n1', 'AhR (Homo sapiens)', '< 100 nM');

Where do these numbers come from? They come from patent US10981908B2.
